The measured values listed here are drawn from patent US20240025971A1.

test system: T1, SARS-CoV-2 Spike (S) trimer (SARS-CoV-2, UniProt P0DTC2 14-1208)
T1 construct: also called Spike trimer
protocol notes: ELISA, S trimer coated, 1:50 dilution
quantity measured: Optical Density (OD; 450 nm) (OD450)
Please reply with the bare figure in OD450 and do not write the unit itself.

Kindly indicate its recorded Optical Density (OD; 450 nm). Item: AB-009665 (antibody, V domains shown, human IgG1) VH: QVQLVQSGAEVKKPGASVKVSCKVSGYTLIELSMHWVRQAPGKGLEWMGGFDPEDGETIYAQKFQGRVTMTEDTSTDTAYMELSSLRSEDTAVYYCAAARVFGVATWFDPWGQGTLVTVSS VL: QSVLTQPPSVSAAPGQKVTISCSGSSSNIGNNYVSWYQQLPGTAPKLLIYDNNKRPSGIPDRFSGSKSGTSATLGITGLQTGDEADYYCGTWDSSLSAGVFGGGTKLTVL
1.38
